- assay_notes: in vitro
- applied_conditions: African green monkey
Kindly state IC50 for each of the entries shown.

Would you please look over these solved cases?
molecule | result
CCc1nc(N)nc(N)c1OCCc1coc(-c2ccc(C(=O)O)cc2)n1 [Compound 59] | > 10 µM
CCc1nc(N)nc(N)c1OCc1cn(Cc2cccc(C(=O)O)c2)nn1 [Compound 26] | > 25 µM

With those in mind, consider the next molecule.
Which IC50 reading was recorded for the molecule CCc1nc(N)nc(N)c1OCc1cc(-c2ccc(Cl)cc2)no1 [Compound 35] ?
> 25 µM
